Biological target: 5-HT2C receptor (Homo sapiens, UniProt P28335)
Sequence (P28335 33-458): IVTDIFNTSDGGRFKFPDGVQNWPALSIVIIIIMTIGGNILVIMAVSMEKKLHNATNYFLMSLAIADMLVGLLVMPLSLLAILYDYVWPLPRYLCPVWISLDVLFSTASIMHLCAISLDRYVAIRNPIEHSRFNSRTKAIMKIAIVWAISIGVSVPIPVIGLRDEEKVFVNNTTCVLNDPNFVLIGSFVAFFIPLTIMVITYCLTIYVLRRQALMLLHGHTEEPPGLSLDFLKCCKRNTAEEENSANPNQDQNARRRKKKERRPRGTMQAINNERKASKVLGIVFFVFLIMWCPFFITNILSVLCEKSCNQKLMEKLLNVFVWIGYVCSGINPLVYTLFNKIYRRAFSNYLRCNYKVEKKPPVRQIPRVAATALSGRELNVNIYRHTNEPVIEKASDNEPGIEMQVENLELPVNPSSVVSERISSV
Assay: Ca2+ flux functional assay at 5-HT2C (WuXi 5-HT2C protocol)
Assay type: cell-based
Parameters: expressed in transfected cells
Conditions: agonist, Ca2+ flux, tested using WuXi 5-HT2C protocol; read-out: 5-HT2C EC50 (* WuXi protocol)
METRIC_NAME: EC50

Request: Looking for the measured EC50 of CCN(CC)C(=O)[C@@H]1C=C2c3cccc4[nH]cc(c34)C[C@H]2N(Cc2ccnc(OC)c2)C1 , can you help?
Response: > 10 µM

====

Molecular target: 5-HT2C receptor (Homo sapiens)
Test: Ca2+ flux functional assay at 5-HT2C (WuXi 5-HT2C protocol)
Type: cell-based
Set-up: expressed in transfected cells
Conditions: agonist, tested using WuXi 5-HT2C protocol, max dose; read-out: 5-HT2C % Act @ Max Dose (* WuXi protocol)
Binning rule for recorded Emax: range 1 (below 1%), range 2 (1% to below 20%), range 3 (20% or more)

Check out these entries, answers already filled in.
compound_smiles=CN(C)C(=O)[C@@H]1C=C2c3cccc4[nH]cc(c34)C[C@H]2N(Cc2ccccc2)C1 qualitative_label="range 3"
compound_smiles=CCN(CC)C(=O)[C@@H]1C=C2c3cccc4[nH]cc(c34)C[C@H]2N(Cc2ccccc2C)C1 qualitative_label="range 1"
compound_smiles=CCN(CC)C(=O)[C@@H]1C=C2c3cccc4[nH]cc(c34)C[C@H]2N(Cc2ccon2)C1 qualitative_label="range 3"
compound_smiles=CCN(CC)C(=O)[C@@H]1C=C2c3cccc4[nH]cc(c34)C[C@H]2N(Cc2ccccc2)C1 qualitative_label="range 2"
compound_smiles=CCN(C)C(=O)[C@@H]1C=C2c3cccc4[nH]cc(c34)C[C@H]2N(CC2CCCC2)C1 qualitative_label="range 3"
compound_smiles=CCN(CC)C(=O)[C@@H]1C=C2c3cccc4[nH]cc(c34)C[C@H]2N(Cc2cccc(C#N)c2)C1 qualitative_label="range 1"
compound_smiles=CCN(C)C(=O)[C@@H]1C=C2c3cccc4[nH]cc(c34)C[C@H]2N(Cc2cccc(OC)c2)C1 qualitative_label="range 2"
compound_smiles=CCN(CC)C(=O)[C@@H]1C=C2c3cccc4[nH]cc(c34)C[C@H]2N(Cc2cocn2)C1 qualitative_label="range 3"
compound_smiles=CCN(CC)C(=O)[C@@H]1C=C2c3cccc4[nH]cc(c34)C[C@H]2N(Cc2ccc(F)cc2)C1 qualitative_label="range 2"
compound_smiles=CCN(CC)C(=O)[C@@H]1C=C2c3cccc4[nH]cc(c34)C[C@H]2N(Cc2ccc(Cl)cc2)C1 qualitative_label="range 2"

Could you now look at the following molecule, please?
Request: In plain terms, what class is CCN(C)C(=O)[C@@H]1C=C2c3cccc4[nH]cc(c34)C[C@H]2N(Cc2ccccc2)C1 ?
Response: range 2

====

Tested on: C57BL/6 mice
Experiment: Automated mouse head twitch response (HTR) assay (video tracking)
Type: in vivo
Details: sc, dose giving highest peak HTR/min (35*, 43*, 44*: dose that resulted in the least suppression)
Description: Disclosed compounds were tested for their ability to induce a head twitch response (HTR) in mice using an automated video tracking procedure, with the results summarized in Table 8 and FIG. 4. Animals. […] Procedure. […] The method was validated by comparing detected events with manual (human) observations and found to have an accuracy >95%. The total number of HTR events counted during the 20-min recording and the rate in HTR/min calculated over 2-min bins were determined for each animal at each dose. […]
METRIC_NAME: Most Efficacious Dose for Peak HTR/min

compound_smiles=CCCN1C[C@H](C(=O)N(CC)CC)C=C2c3cccc4[nH]cc(c34)C[C@H]21 metric_name="Most Efficacious Dose for Peak HTR/min" result="(0.32) mg/kg, sc"
compound_smiles=CC[C@@H](C)NC(=O)[C@@H]1C=C2c3cccc4[nH]cc(c34)C[C@H]2N(C)C1 metric_name="Most Efficacious Dose for Peak HTR/min" result="(0.32) mg/kg, sc"

====

// reported log10 of microsomal CLint per item
Experiment: in vitro
Format: in vitro ADME, rat
Details: rat, microsomes; RLM (male Sprague-Dawley) 0.50 mg/mL, NADPH 1 mM, 1 μM compound, pH 7.4, 37° C., 60 min; read-out: Intrinsic clearance (Clint)
Text: RLM Stability Pooled RLM from male Sprague-Dawley rats (Xenotech R1000) were used.
The figures below represent log10 of microsomal CLint, where microsomal CLint is stated in µL/min/mg.

Answered examples (10):
compound="O=C([C@H]1C=C2c3cccc4[nH]cc(c34)C[C@H]2N(Cc2ccccc2)C1)N1CCCC1 [Compound 84a]" number=2.41
compound="CCN(CC)C(=O)[C@@H]1C=C2c3cccc4[nH]cc(c34)C[C@H]2N(Cc2ccon2)C1 [Compound 70]" number=1.68
compound="C[C@H]1C[C@H](C)N1C(=O)[C@@H]1C=C2c3cccc4[nH]cc(c34)C[C@H]2N(Cc2ccccc2)C1 [Compound 87]" number=1.78
compound="CCN(CC)C(=O)[C@@H]1C=C2c3cccc4[nH]cc(c34)C[C@H]2N(Cc2ccccc2)C1 [Compound 82]" number=2.28
compound="CCN(CC)C(=O)[C@@H]1C=C2c3cccc4[nH]cc(c34)C[C@H]2N(Cc2ccc(F)c(F)c2)C1 [Compound 54]" number=2.04
compound="CCN(CC)C(=O)[C@@H]1C=C2c3cccc4[nH]cc(c34)C[C@H]2N(Cc2cccnc2)C1 [Compound 55]" number=2.01
compound="CN(C)C(=O)[C@@H]1C=C2c3cccc4[nH]cc(c34)C[C@H]2N(Cc2ccccc2)C1 [Compound 102]" number=2.13
compound="CCNC(=O)[C@@H]1C=C2c3cccc4[nH]cc(c34)C[C@H]2N(Cc2cccc(OC)c2)C1 [Compound 63]" number=2.81
compound="CCN(CC)C(=O)[C@@H]1C=C2c3cccc4[nH]cc(c34)C[C@H]2N(Cc2ccncc2)C1 [Compound 51]" number=1.87
compound="CCN(C)C(=O)[C@@H]1C=C2c3cccc4[nH]cc(c34)C[C@H]2N(Cc2ccccc2)C1 [Compound 85]" number=2.12

Request: Looking for the measured log10 of microsomal CLint of CCN(CC)C(=O)[C@H]1C=C2c3cccc4[nH]cc(c34)C[C@H]2N(CC2CCCC2)C1 [Compound 90a] , can you help?
Response: 2.46

Request: Looking for the measured log10 of microsomal CLint of CCN(CC)C(=O)[C@@H]1C=C2c3cccc4[nH]cc(c34)C[C@H]2N(Cc2cccc(C)c2)C1 [Compound 98] , can you help?
Response: 2.86

Request: Looking for the measured log10 of microsomal CLint of CCCN(CC)C(=O)[C@@H]1C=C2c3cccc4[nH]cc(c34)C[C@H]2N(Cc2cccc(OC)c2)C1 [Compound 93] , can you help?
Response: 2.63

Request: Looking for the measured log10 of microsomal CLint of CCCN(CC)C(=O)[C@H]1C=C2c3cccc4[nH]cc(c34)C[C@H]2N(Cc2ccccc2)C1 [Compound 86a] , can you help?
Response: 2.52

Request: Looking for the measured log10 of microsomal CLint of CCN(C)C(=O)[C@@H]1C=C2c3cccc4[nH]cc(c34)C[C@H]2N(CC2CCCC2)C1 [Compound 103] , can you help?
Response: 2.27

Request: Looking for the measured log10 of microsomal CLint of CCN(C)C(=O)[C@H]1C=C2c3cccc4[nH]cc(c34)C[C@H]2N(Cc2ccccc2)C1 [Compound 85a] , can you help?
Response: 2.60

Request: Looking for the measured log10 of microsomal CLint of CCN(CC)C(=O)[C@@H]1C=C2c3cccc4[nH]cc(c34)C[C@H]2N(CC2CCCC2)C1 [Compound 90] , can you help?
Response: 2.57

Request: Looking for the measured log10 of microsomal CLint of CCCN(CC)C(=O)[C@@H]1C=C2c3cccc4[nH]cc(c34)C[C@H]2N(Cc2ccccc2)C1 [Compound 86] , can you help?
Response: 2.07

Request: Looking for the measured log10 of microsomal CLint of CCN(CC)C(=O)[C@@H]1C=C2c3cccc4[nH]cc(c34)C[C@H]2N(Cc2ccc(C)cc2)C1 [Compound 97] , can you help?
Response: 2.73

Request: Looking for the measured log10 of microsomal CLint of CC[C@@H](C)NC(=O)[C@@H]1C=C2c3cccc4[nH]cc(c34)C[C@H]2N(Cc2cccc(OC)c2)C1 [Compound 95] , can you help?
Response: 3.20
